subjectOfTest: EGFR del746-750 T790M (Homo sapiens, UniProt P00533, DEL746-750/T790M)
Sequence (P00533 with tags, fused parts or gaps DEL746-750/T790M limits assumed): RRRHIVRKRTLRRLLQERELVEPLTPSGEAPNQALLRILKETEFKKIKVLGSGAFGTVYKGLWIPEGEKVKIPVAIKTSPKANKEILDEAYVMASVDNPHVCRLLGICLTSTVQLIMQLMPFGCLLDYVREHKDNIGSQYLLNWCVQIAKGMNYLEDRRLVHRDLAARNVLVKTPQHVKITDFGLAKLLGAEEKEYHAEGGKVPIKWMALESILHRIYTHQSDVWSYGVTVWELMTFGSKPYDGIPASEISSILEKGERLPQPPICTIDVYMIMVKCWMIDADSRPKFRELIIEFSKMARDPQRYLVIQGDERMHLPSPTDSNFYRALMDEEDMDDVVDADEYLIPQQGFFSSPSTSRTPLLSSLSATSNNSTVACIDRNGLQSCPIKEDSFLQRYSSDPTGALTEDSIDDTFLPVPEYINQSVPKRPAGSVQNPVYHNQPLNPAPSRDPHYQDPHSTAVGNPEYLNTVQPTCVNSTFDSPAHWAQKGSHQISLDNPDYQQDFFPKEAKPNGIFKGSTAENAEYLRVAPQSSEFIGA
assayName: EGFR del746-750 T790M biochemical assay (Caliper mobility shift)
testParameters: 5 μM ATP; apparent Ki (Morrison fit) converted by Cheng-Prusoff, Km of ATP 2.1 μM; read-out: EGFR(T790M/d746-750) Ki
recordedMetric: Ki (nM)
Express it in nM; write the number only.

CC(C)n1nc(N2CCCC2=O)c2cnc(Nc3ccnc(-c4cnn(S(=O)(=O)C5CC5)c4)n3)cc21 [Example 106] = 1.6
CC(C#N)Nc1nn(C(C)C)c2cc(Nc3ccnc(N4CC[C@H](O)[C@H](F)C4)n3)ncc12 (relative stereo) [Example 179] = 15.1
CC(C)n1nc(N2CCCC2)c2cnc(Nc3ccnc(N4CCC(O)C(C)(C)C4)n3)cc21 (stereo not shown) [Example 8] = 1.3

CC[C@H](C)n1nc(N2CC(C(C)(C)O)C2)c2cnc(Nc3ccnc(N4CC[C@@H](O)[C@@H](F)C4)n3)cc21 (relative stereo) [Example 194] has a reported Ki of 3.5

CCC(C)n1nc(N2CC[C@@H](O)C2)c2cnc(Nc3ccnc(N4CCC(S(C)(=O)=O)CC4)n3)cc21 (stereo partly shown) [Example 206] has a reported Ki of 8.9

CC(Nc1nn(C(C)C)c2cc(Nc3ccnc(-c4cnn(S(=O)(=O)C5CC5)c4)n3)ncc12)C(N)=O (stereo not shown) [Example 109] has a reported Ki of 1.3

CC(C)n1nc(C2=NC(C)(C)NC2=O)c2cnc(Nc3ccnc(N4CCC(C)(O)CC4)n3)cc21 [Example 95] has a reported Ki of 59.5

###

subjectOfTest: EGFR T790M L858R (Homo sapiens, UniProt P00533, L858R/T790M)
Sequence (P00533 25-1210 T790M/L858R): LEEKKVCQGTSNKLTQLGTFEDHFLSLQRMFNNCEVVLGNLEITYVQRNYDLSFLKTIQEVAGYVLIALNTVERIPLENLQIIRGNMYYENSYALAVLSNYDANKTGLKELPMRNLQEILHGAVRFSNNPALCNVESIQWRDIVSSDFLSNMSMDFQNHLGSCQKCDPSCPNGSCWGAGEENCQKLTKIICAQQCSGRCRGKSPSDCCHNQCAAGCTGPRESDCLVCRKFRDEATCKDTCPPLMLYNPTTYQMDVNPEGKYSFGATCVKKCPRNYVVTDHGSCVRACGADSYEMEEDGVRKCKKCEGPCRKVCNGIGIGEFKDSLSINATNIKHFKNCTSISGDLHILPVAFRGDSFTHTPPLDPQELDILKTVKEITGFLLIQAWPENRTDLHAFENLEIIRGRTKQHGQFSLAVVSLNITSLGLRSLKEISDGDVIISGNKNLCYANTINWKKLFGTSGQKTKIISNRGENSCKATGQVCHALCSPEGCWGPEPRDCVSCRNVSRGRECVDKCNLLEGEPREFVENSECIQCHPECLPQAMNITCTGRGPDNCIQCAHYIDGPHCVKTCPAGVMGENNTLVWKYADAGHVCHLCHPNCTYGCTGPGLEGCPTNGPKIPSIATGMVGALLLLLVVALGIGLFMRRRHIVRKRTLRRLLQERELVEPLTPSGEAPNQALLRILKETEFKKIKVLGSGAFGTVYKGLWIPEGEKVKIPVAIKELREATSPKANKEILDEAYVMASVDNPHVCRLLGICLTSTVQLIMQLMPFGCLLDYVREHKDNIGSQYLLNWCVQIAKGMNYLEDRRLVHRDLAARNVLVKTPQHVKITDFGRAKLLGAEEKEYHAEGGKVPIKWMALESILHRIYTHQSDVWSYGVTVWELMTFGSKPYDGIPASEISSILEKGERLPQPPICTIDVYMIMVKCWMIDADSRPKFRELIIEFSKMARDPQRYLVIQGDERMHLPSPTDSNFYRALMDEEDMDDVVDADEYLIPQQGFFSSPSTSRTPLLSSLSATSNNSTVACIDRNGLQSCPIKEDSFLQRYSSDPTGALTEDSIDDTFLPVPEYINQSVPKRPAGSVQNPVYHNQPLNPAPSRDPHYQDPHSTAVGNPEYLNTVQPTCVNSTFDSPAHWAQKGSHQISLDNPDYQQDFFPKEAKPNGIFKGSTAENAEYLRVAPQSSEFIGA
assayName: EGFR T790M L858R biochemical assay (Caliper mobility shift)
testParameters: 5 μM ATP; apparent Ki (Morrison fit) converted by Cheng-Prusoff, Km of ATP 1.3 μM
recordedMetric: Ki (nM)
Express it in nM; write the number only.

The cases that follow already have their Ki on record.
CCC(=O)N1CCN(c2nn(C(C)C)c3cc(Nc4ccnc(N5CCC(C)(O)CC5)n4)ncc23)CC1 [Example 134] = 11.5
CCC(C)n1nc(N2CCNC(=O)C2)c2cnc(Nc3ccnc(N4CCC(C)(O)CC4)n3)cc21 (centres unmarked) [Example 92] = 3.8
CC(C)n1nc(C2=NC(C)(C)NC2=O)c2cnc(Nc3ccnc(N4CCC(C)(O)CC4)n3)cc21 [Example 95] = 15.2

// compound CC(C)n1nc(N2CCCNC2=O)c2cnc(Nc3ccnc(-c4cnn(S(=O)(=O)C5CC5)c4)n3)cc21 [Example 150] , assay EGFR T790M L858R (Homo sapiens, UniProt P00533, L858R/T790M), Ki value: 4.9

// compound CC(C)n1nc(N2CCC3(COC3)C2)c2cnc(Nc3ccnc(-c4cnn(S(=O)(=O)C5CC5)c4)n3)cc21 [Example 120] , assay EGFR T790M L858R (Homo sapiens, UniProt P00533, L858R/T790M), Ki value: 1.4

// compound CCC(C)n1nc(N2CC3(COC3)C2)c2cnc(Nc3ccnc(N4C[C@@H](F)[C@@H](O)C(C)(C)C4)n3)cc21 (mixture of isomers) [Example 147] , assay EGFR T790M L858R (Homo sapiens, UniProt P00533, L858R/T790M), Ki value: 2.4

// compound CCC(C)n1nc(N2CCNC2=O)c2cnc(Nc3ccnc(N4CC[C@@H](OC)[C@@H](F)C4)n3)cc21 (mixture of isomers) [Example 26] , assay EGFR T790M L858R (Homo sapiens, UniProt P00533, L858R/T790M), Ki value: 0.6

###

Each item that follows carries a reported Ki.
subjectOfTest: EGFR del746-750 T790M (Homo sapiens, UniProt P00533, DEL746-750/T790M)
assayName: EGFR del746-750 T790M biochemical assay (Caliper mobility shift)
testParameters: 5 μM ATP; apparent Ki (Morrison fit) converted by Cheng-Prusoff, Km of ATP 2.1 μM; read-out: EGFR(T790M/d746-750) Ki
Express it in nM; write the number only.

CCC(C)n1nc(N2CC3(COC3)C2)c2cnc(Nc3ccnc(N4C[C@@H](F)[C@@H](O)C(C)(C)C4)n3)cc21 (mixture of isomers) [Example 147] = 3.9
CC(C)n1nc(N2CCC3(CCNC3=O)C2)c2cnc(Nc3ccnc(-c4cnn(S(=O)(=O)C5CC5)c4)n3)cc21 (centres unmarked) [Example 112] = 1

CCC(C)n1nc(N2CC[C@@H](O)C2)c2cnc(Nc3ccnc(N4CCC5(CC4)CNC(=O)CO5)n3)cc21 (single isomer, unassigned) [Example 207] has a reported Ki of 1060

Cc1cn[nH]c1-c1nn(C(C)C)c2cc(Nc3ccnc(N4CCC(O)C(C)(C)C4)n3)ncc12 (centres unmarked) [Example 10] has a reported Ki of 32.4

###

subjectOfTest: phosphor-EGFR in H1975(L585R/T790M) mutant EGFR expressing cells (Homo sapiens, UniProt P00533, L858R/T790M)
assayName: H1975 pEGFR MSD cellular assay
testParameters: NCI-H1975 cells, serum starved, 1 hour compound incubation, pEGFR Tyr1068 MSD; read-out: HI975 pEGFR EC50
In plain terms, low EC50, meaning strictly below 200 nM, gives met, and everything else gives not met.

See these solved cases before continuing.
CCC(C)n1nc(N2CCNC2=O)c2cnc(Nc3ccnc(NCC(C)(C)S(C)(=O)=O)n3)cc21 (racemic) = not met
CC(C)n1nc(N2CCOCC2)c2cnc(Nc3ccnc(-c4cnn(CC5CC5)c4)n3)cc21 = not met

Data request: Regarding CC(C)n1nc(N2CC(O)(CO)C2)c2cnc(Nc3ccnc(-c4cnn(S(=O)(=O)C5CC5)c4)n3)cc21 , kindly confirm whether its EC50 is beneath 200 nM.
Data returned: not met

Data request: Regarding CC(C)Oc1nn(C(C)C)c2cc(Nc3ccnc(-c4cnn(S(=O)(=O)C5CC5)c4)n3)ncc12 , kindly confirm whether its EC50 is beneath 200 nM.
Data returned: not met

Data request: Regarding CC(O)C1CN(c2nn(C(C)C)c3cc(Nc4ccnc(-c5cnn(S(=O)(=O)C6CC6)c5)n4)ncc23)C1 (centres unmarked) , kindly confirm whether its EC50 is beneath 200 nM.
Data returned: met

Data request: Regarding CC(C)n1nc(N2CCC2)c2cnc(Nc3ccnc(-c4cnn(S(=O)(=O)C5CC5)c4)n3)cc21 , kindly confirm whether its EC50 is beneath 200 nM.
Data returned: met

Data request: Regarding CCC(C)n1nc(N2CC(C(C)(C)O)C2)c2cnc(Nc3ccnc(N4CC[C@@H](O)[C@@H](F)C4)n3)cc21 (single isomer, unassigned) , kindly confirm whether its EC50 is beneath 200 nM.
Data returned: met

###

subjectOfTest: EGFR T790M L858R (Homo sapiens, UniProt P00533, L858R/T790M)
assayName: EGFR T790M L858R biochemical assay (Caliper mobility shift)
testParameters: 5 μM ATP; apparent Ki (Morrison fit) converted by Cheng-Prusoff, Km of ATP 1.3 μM
recordedMetric: pKi
Remember the convention: pKi equals -log10 of concentration in molar.

The cases that follow already have their pKi on record.
CC(C)n1nc(N2CCC3(CNC(=O)C3)C2)c2cnc(Nc3ccnc(-c4cnn(S(=O)(=O)C5CC5)c4)n3)cc21 (stereo not shown) = 8.96
CCC(C)n1nc(N2CC3(COC3)C2)c2cnc(Nc3ccnc(OCC(C)(C)S(C)(=O)=O)n3)cc21 (racemic) = 8.49
CC(C)n1nc(N2CC(C(C)(C)C(N)=O)C2)c2cnc(Nc3ccnc(N4CCC(C)(O)CC4)n3)cc21 = 8.17

CCC(C)n1nc(N2CC(C(C)(C)O)C2)c2cnc(Nc3ccnc(N4CCC(O)C(C)(C)C4)n3)cc21 (mixture of isomers) has a reported pKi of 8.66

CC[C@@H](C)n1nc(N2CC[C@@H](O)C2)c2cnc(Nc3ccnc(N4CC[C@](C)(C(N)=O)C4)n3)cc21 (relative stereo) has a reported pKi of 8.51

CC(C)n1nc(N2CCS(=N)(=O)CC2)c2cnc(Nc3ccnc(-c4cnn(S(=O)(=O)C5CC5)c4)n3)cc21 has a reported pKi of 8.77

CC(C)n1nc(N2CC[C@@H](O)C2)c2cnc(Nc3ccnc(N4CCC(C)(O)CC4)n3)cc21 has a reported pKi of 8.57

###

Each item that follows carries a reported pEC50.
subjectOfTest: phosphor-EGFR in H1975(L585R/T790M) mutant EGFR expressing cells (Homo sapiens, UniProt P00533, L858R/T790M)
assayName: H1975 pEGFR MSD cellular assay
testParameters: NCI-H1975 cells, serum starved, 1 hour compound incubation, pEGFR Tyr1068 MSD; read-out: HI975 pEGFR EC50
Remember the convention: pEC50 equals -log10 of concentration in molar.

The cases that follow already have their pEC50 on record.
CC1CNC(=O)N1c1nn(C(C)C)c2cc(Nc3ccnc(N4CC[C@H](O)[C@H](F)C4)n3)ncc12 (relative stereo) = 6.04
CC(C)n1nc(N2CCC(C)(C(N)=O)C2)c2cnc(Nc3ccnc(N4CCC(C)(O)CC4)n3)cc21 (centres unmarked) = 5.88

CC(C)n1nc(N2CCO[C@@H](CO)C2)c2cnc(Nc3ccnc(N4CCC(O)C(F)C4)n3)cc21 (mixture of isomers) has a reported pEC50 of 5.88

CC(C)n1nc(N2CC3(C2)C[S+]([O-])C3)c2cnc(Nc3ccnc(N4CCC(C)(O)CC4)n3)cc21 has a reported pEC50 of 5.85

CC(C)n1nc(N2CCN(C)C2=O)c2cnc(Nc3ccnc(-c4cnn(S(=O)(=O)C5CC5)c4)n3)cc21 has a reported pEC50 of 7.67
